Known Editing Efficiency 3 (%) of a selection of molecules
test system: HBV genome in HEK293T cells transduced with a lentiviral vector; experiment: Base editing efficiency in Hek293-lentiHBV system (PCR amplicons sequenced on MiSeq); type: cell-based, Hepatitis B virus; conditions: replicate 3, base editor Cas12b-ABE, plasmid transfection, four days
Strand notation (5' to 3'): a small letter for the sugar, then the base; units joined by * are phosphorothioate-linked, units joined directly phosphodiester-linked; [ ] holds rarer units or linkages, { } end groups; capitals alone tell only the bases. m = 2'-O-methyl; r = 2'-OH (RNA)
Give just the number in %; leave the unit off.

- molecule: "cas12b-42: guide RNA SEQ ID NO: 384 (nucleic acid) guide: mG*mU*mU*rCrUrGrUrCrUrUrUrUrGrGrUrCrArGrGrArCrArArCrCrGrUrCrUrArGrCrUrArUrArArGrUrGrCrUrGrCrArGrGrGrUrGrUrGrArGrArArArCrUrCrCrUrArUrUrGrCrUrGrGrArCrGrArUrGrUrCrUrCrUrUrArCrGrArGrGrCrArUrUrArGrCrArCrGrGrArGrCrUrArCrUrGrUrGrGrArGrUrUrArCrU"
  unitInfo: "%"
  reportedValue: 33.54

So, cas12b-4: guide RNA SEQ ID NO: 379 (nucleic acid) guide: mG*mU*mU*rCrUrGrUrCrUrUrUrUrGrGrUrCrArGrGrArCrArArCrCrGrUrCrUrArGrCrUrArUrArArGrUrGrCrUrGrCrArGrGrGrUrGrUrGrArGrArArArCrUrCrCrUrArUrUrGrCrUrGrGrArCrGrArUrGrUrCrUrCrUrUrArCrGrArGrGrCrArUrUrArGrCrArCrArCrArArGrArArUrCrCrUrCrArCrArArUrArCrC ? Its Editing Efficiency 3 (%) was 18.93
